- system: T1, human PD-L1 (huPD-L1), full-length, stably expressed on CHO cells (human, UniProt Q9NZQ7 19-290)
- T1 construct: whole, on cells
- T1 sequence (Q9NZQ7 19-290): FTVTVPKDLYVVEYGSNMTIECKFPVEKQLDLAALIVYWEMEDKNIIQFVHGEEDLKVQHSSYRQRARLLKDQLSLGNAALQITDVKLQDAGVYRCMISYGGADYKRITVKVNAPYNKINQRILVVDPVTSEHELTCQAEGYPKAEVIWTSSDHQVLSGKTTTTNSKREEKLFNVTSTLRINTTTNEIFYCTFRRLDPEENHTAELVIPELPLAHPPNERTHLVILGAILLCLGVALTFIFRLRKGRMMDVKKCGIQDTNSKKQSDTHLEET
- protocol_summary: flow cytometry, CHO cells expressing huPD-L1; MFI against WT CD80 of the table
I'd appreciate it if you could supply Fold change to WT CD80 values for the items below.
Answers are plain numbers, in fold.

Below are worked cases with known answers.
binder	units_symbol	Fold change to WT CD80
variant CD80 IgV-Fc E24D/E35D/M47L/V68M/E95V/L97Q (Fc fusion, not shown: small tags and cut ends; a dimerising Fc or GST) VIHVTKEVKEVATLSCGHNVSVEDLAQTRIYWQKDKKMVLTMMSGDLNIWPEYKNRTIFDITNNLSIMILALRPSDEGTYECVVLKYEKDAFKRVHQAEVTLSVKAD	fold	362
variant CD80 IgV-Fc E35D/M47V/N48K/V68M/L85M (Fc fusion, not shown: small tags and cut ends; a dimerising Fc or GST) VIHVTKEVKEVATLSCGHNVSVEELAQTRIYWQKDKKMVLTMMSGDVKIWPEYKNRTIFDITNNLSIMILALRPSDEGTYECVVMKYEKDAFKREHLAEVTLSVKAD	fold	148
variant CD80 IgV-Fc H18Y/V22D/E35D/M47V/N48K/V68M (Fc fusion, not shown: small tags and cut ends; a dimerising Fc or GST) VIHVTKEVKEVATLSCGYNVSDEELAQTRIYWQKDKKMVLTMMSGDVKIWPEYKNRTIFDITNNLSIMILALRPSDEGTYECVVLKYEKDAFKREHLAEVTLSVKAD	fold	250
variant CD80 IgV-Fc Q33R/E35D/M38I/M47L/V68M (Fc fusion, not shown: small tags and cut ends; a dimerising Fc or GST) VIHVTKEVKEVATLSCGHNVSVEELAQTRIYWRKDKKIVLTMMSGDLNIWPEYKNRTIFDITNNLSIMILALRPSDEGTYECVVLKYEKDAFKREHLAEVTLSVKAD	fold	320
variant CD80 IgV-Fc E35D/M43I/M47L/V68M (Fc fusion, not shown: small tags and cut ends; a dimerising Fc or GST) VIHVTKEVKEVATLSCGHNVSVEELAQTRIYWQKDKKMVLTMISGDLNIWPEYKNRTIFDITNNLSIMILALRPSDEGTYECVVLKYEKDAFKREHLAEVTLSVKAD	fold	328

Please give Fold change to WT CD80, item by item, for the list that follows.
1. variant CD80 IgV-Fc E35D/M47L/Y53F/V68M/A71G/K93R/E95V (Fc fusion, not shown: small tags and cut ends; a dimerising Fc or GST) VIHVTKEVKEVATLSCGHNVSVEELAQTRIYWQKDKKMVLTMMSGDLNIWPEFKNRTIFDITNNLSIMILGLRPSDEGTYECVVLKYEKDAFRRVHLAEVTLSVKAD
2. variant CD80 IgV-Fc Q27L/Q33L/E35D/T41S/M47V/N48K/V68M/L85M (Fc fusion, not shown: small tags and cut ends; a dimerising Fc or GST) VIHVTKEVKEVATLSCGHNVSVEELALTRIYWLKDKKMVLSMMSGDVKIWPEYKNRTIFDITNNLSIMILALRPSDEGTYECVVMKYEKDAFKREHLAEVTLSVKAD
3. variant CD80 IgV-Fc H18Y/E35D/V68M/T79M/L85M (Fc fusion, not shown: small tags and cut ends; a dimerising Fc or GST) VIHVTKEVKEVATLSCGYNVSVEELAQTRIYWQKDKKMVLTMMSGDMNIWPEYKNRTIFDITNNLSIMILALRPSDEGMYECVVMKYEKDAFKREHLAEVTLSVKAD
4. variant CD80 IgV-Fc H18Y/E35D/M38I/M47L/V68M/L85M (Fc fusion, not shown: small tags and cut ends; a dimerising Fc or GST) VIHVTKEVKEVATLSCGYNVSVEELAQTRIYWQKDKKIVLTMMSGDLNIWPEYKNRTIFDITNNLSIMILALRPSDEGTYECVVMKYEKDAFKREHLAEVTLSVKAD

486
320
290
69.7
